The entries below are paired with their reported molar heat capacity at constant pressure.
ASSAY_COMMENT: molar heat capacity at constant pressure
CONDITION_PARAMETERS: 298.15 K; 101.33 kPa; Crystal; Small sample (50 mg) DSC
A number alone suffices; assume J/K/mol.

Take a look at these entries with their results.
COMPOUND	QUANTITY_KIND	VALUE_REPORTED
OC[C@H]1O[C@@H](O[C@H]2[C@H](O)[C@@H](O)[C@H](O)O[C@@H]2CO)[C@H](O)[C@@H](O)[C@@H]1O [D-cellobiose]	molar heat capacity at constant pressure	436.1
O=C(CO)[C@@H](O)[C@H](O)[C@H](O)CO [D-fructose]	molar heat capacity at constant pressure	227.7
O=C[C@H](O)[C@@H](O)[C@@H](O)[C@H](O)CO [(+)-galactose]	molar heat capacity at constant pressure	213.7

The reported value for O=C[C@H](O)[C@@H](O)[C@H](O[C@H]1O[C@H](CO)[C@@H](O[C@H]2O[C@H](CO)[C@@H](O)[C@H](O)[C@H]2O)[C@H](O)[C@H]1O)[C@H](O)CO [maltotriose] in terms of molar heat capacity at constant pressure is 662.5

The reported value for OC[C@H]1O[C@@](CO)(O[C@H]2O[C@H](CO)[C@@H](O)[C@H](O)[C@H]2O)[C@@H](O)[C@@H]1O [D-sucrose] in terms of molar heat capacity at constant pressure is 424.3

The reported value for OC[C@H]1O[C@@H]2O[C@H]3[C@H](O)[C@@H](O)[C@@H](O[C@H]4[C@H](O)[C@@H](O)[C@@H](O[C@H]5[C@H](O)[C@@H](O)[C@@H](O[C@H]6[C@H](O)[C@@H](O)[C@@H](O[C@H]7[C@H](O)[C@@H](O)[C@@H](O[C@H]8[C@H](O)[C@@H](O)[C@@H](O[C@H]1[C@H](O)[C@H]2O)O[C@@H]8CO)O[C@@H]7CO)O[C@@H]6CO)O[C@@H]5CO)O[C@@H]4CO)O[C@@H]3CO [β-cyclodextrin] in terms of molar heat capacity at constant pressure is 1341.3

The reported value for O.OC[C@H]1O[C@@H](O[C@H]2[C@H](O)[C@@H](O)[C@@H](O)O[C@@H]2CO)[C@H](O)[C@@H](O)[C@H]1O [α-D-lactose hydrate] in terms of molar heat capacity at constant pressure is 435.8

* * *

ASSAY_COMMENT: molar heat capacity at constant pressure
CONDITION_PARAMETERS: 288.15 K; 101.33 kPa; Crystal; Small sample (50 mg) DSC
Give class 1 when the value for molar heat capacity at constant pressure is at least 200 J/K/mol. Give class 0 when it is less.

Example results:
COMPOUND	GROUP
O=C[C@H](O)[C@H](O)[C@H](O)CO	class 0
O=CC[C@H](O)[C@H](O)CO	class 0
O=C[C@H](O)[C@@H](O)[C@H](O[C@H]1O[C@H](CO)[C@@H](O[C@H]2O[C@H](CO)[C@@H](O)[C@H](O)[C@H]2O)[C@H](O)[C@H]1O)[C@H](O)CO	class 1
OC[C@H]1O[C@@H]2O[C@H]3[C@H](O)[C@@H](O)[C@@H](O[C@H]4[C@H](O)[C@@H](O)[C@@H](O[C@H]5[C@H](O)[C@@H](O)[C@@H](O[C@H]6[C@H](O)[C@@H](O)[C@@H](O[C@H]7[C@H](O)[C@@H](O)[C@@H](O[C@H]1[C@H](O)[C@H]2O)O[C@@H]7CO)O[C@@H]6CO)O[C@@H]5CO)O[C@@H]4CO)O[C@@H]3CO	class 1
OC[C@H]1O[C@@H]2O[C@H]3[C@H](O)[C@@H](O)[C@@H](O[C@H]4[C@H](O)[C@@H](O)[C@@H](O[C@H]5[C@H](O)[C@@H](O)[C@@H](O[C@H]6[C@H](O)[C@@H](O)[C@@H](O[C@H]7[C@H](O)[C@@H](O)[C@@H](O[C@H]8[C@H](O)[C@@H](O)[C@@H](O[C@H]1[C@H](O)[C@H]2O)O[C@@H]8CO)O[C@@H]7CO)O[C@@H]6CO)O[C@@H]5CO)O[C@@H]4CO)O[C@@H]3CO	class 1
OC[C@H]1O[C@H](O)[C@H](O)[C@@H](O)[C@@H]1O	class 1
CC(=O)N[C@@H](C=O)[C@@H](O)[C@H](O)[C@H](O)CO	class 1
OC[C@H]1O[C@@H](O[C@H]2[C@H](O)[C@@H](O)[C@H](O)O[C@@H]2CO)[C@H](O)[C@@H](O)[C@@H]1O	class 1
O.OC[C@H]1O[C@@H](O[C@H]2[C@H](O)[C@@H](O)[C@@H](O)O[C@@H]2CO)[C@H](O)[C@@H](O)[C@H]1O [α-D-lactose hydrate]	class 1
O=C[C@@H](O)[C@@H](O)[C@H](O)[C@H](O)CO	class 0

API: the following record is the query input.
Query string: Determine whether this compound has molar heat capacity at constant pressure no lower than 200 J/K/mol: O=C(CO)[C@@H](O)[C@H](O)[C@H](O)CO
Result string: class 1
